Tested on: A549
experiment_description: NCI tumour cell line growth inhibition, 48 h
The source made the active and inactive calls. Rule as the data show it: active = GI50 up to about 1.1 µM and inactive = higher.
Mark one answer only. Choices: active, inactive

Illustrative cases are given below, each with its answer.
>  <molecule>
O=C(Nc1ccccc1)c1nn(-c2cc(S(=O)(=O)O)c([N+](=O)[O-])cc2Cl)[n+](-c2cc(S(=O)(=O)[O-])c([N+](=O)[O-])cc2Cl)n1

>  <qualitative_label>
inactive

$$$$
>  <molecule>
Cc1ccc(S(=O)(=O)N/N=C2\CCCCC23CCC(=O)NC3)cc1 (stereo unspecified)

>  <qualitative_label>
inactive

$$$$
>  <molecule>
O=C1Cc2c([nH]c3ccccc23)C2(CC3CCCCN13)OCCO2 (stereo unspecified)

>  <qualitative_label>
inactive

$$$$
>  <molecule>
COc1ccc2o/c(=N/c3ccccc3)c(C(N)=O)cc2c1

>  <qualitative_label>
inactive

$$$$
>  <molecule>
COc1cc(C(c2cc3c(cc2O)OCO3)N2CCCCC2)cc(OC)c1OC (stereo unspecified)

>  <qualitative_label>
inactive

$$$$
>  <molecule>
COc1ccc(C(O)/C(=C/n2ccnc2)c2ccccc2)cc1OC (stereo unspecified)

>  <qualitative_label>
inactive

$$$$
>  <molecule>
CCCC(Sc1nc(N)nc2nc[nH]c12)C(=O)O (stereo unspecified)

>  <qualitative_label>
inactive

$$$$
>  <molecule>
O=S(=O)(/C=C/C=C/[S+]([O-])c1ccccc1)c1ccccc1 (stereo unspecified)

>  <qualitative_label>
inactive

$$$$
>  <molecule>
O=C(Nc1cccc2ccccc12)c1ccccc1

>  <qualitative_label>
inactive

$$$$
>  <molecule>
COC(=O)CC1C(=O)OCc2c1cc1n(c2=O)Cc2c-1nc1ccccc1c2OC (stereo unspecified)

>  <qualitative_label>
inactive

$$$$

Field: outcome | Entry: N#CC1=C2Sc3ccccc3N2[C@H](c2ccccc2)[C@H]2COC(=O)[C@@H]12
inactive

Continue with Clc1c2nc3ccccc3c-2[nH]c2ccccc12
inactive

Continue with CC(/C=N\NC(=S)N(C)C)=N/NC(=S)N(C)C
active

Continue with Nc1ccc(Nc2cc(O)nc(O)n2)cc1
inactive

Continue with O=C(Cn1c2c(c3ccccc31)CCCC2)N1CCOCC1
inactive

Continue with C[N+](C)(C)CCCCCc1c2nc(c(CCCCC[N+](C)(C)C)c3ccc([nH]3)c(CCCCC[N+](C)(C)C)c3nc(c(CCCCC[N+](C)(C)C)c4ccc1[nH]4)C=C3)C=C2
inactive

Continue with Cc1ccc(C2=CC(=O)/C(=C\C(=O)c3ccc(Br)cc3)O2)c(C)c1
inactive

Hey, just so you know, these numbers are from ChEMBL document CHEMBL1201862.
